# Tested on: CCRF-CEM leukemia
# test details: NCI-60 one-dose screen, 48 h
# condition context: 10 µM unless noted
# Procedure: Growth inhibition of the CCRF-CEM human tumor cell line is measured as a screen for anti-cancer activity. Cells are grown in 96 well plates and exposed to the test compound for 48 hours. Compounds are tested at a single concentration, which is 10^-5 M for most compounds. The reported endpoint is percent growth (GI% or GIPRCNT), where numbers from 0 - 100% represent growth inhibition, and numbers from -100% - 0 represent cell death. For example, a value of 40 represents 60% growth inhibition. […]
The panel holds about 83,000 compounds, 20% with a hit somewhere; the sample as a whole holds those more often. Active and inactive are the calls of the source. Rule for the calls: active = growth percent below 10; inactive = the rest.
Outcome codes: YES = active, NO = inactive

COc1cccc(-c2nc3cc(NC(=O)c4ccc(Cl)c(C#N)c4)ccc3o2)c1
NO
COc1ccc(C2=NN(C(C)=O)C(c3c(C)nn(-c4ccccc4)c3N3CCOCC3)C2)cc1 (configuration not stated)
NO
O=C1N=C(N2CCOCC2)S/C1=C\c1cn(-c2ccccc2)nc1-c1ccccc1
NO
CCN(Cc1cccc(S(=O)(=O)[O-])c1)c1ccc(C(=C2C=CC(=[N+](CC)Cc3cccc(S(=O)(=O)O)c3)C=C2)c2ccccc2S(=O)(=O)O)cc1
NO
c1ccc2nc(N/N=C3\CCCCC3C3CCCCC3)ccc2c1 (configuration not stated)
YES
NC(=O)NC1(C(=O)O)CCCC1
NO
O=C(O)CNC(=O)C1(N2C(=O)c3ccccc3C2=O)CCCC1
NO
CC(C)=CCNc1ncnc2c1ncn2C1OC(COP(=O)(O)O)C(O)C1O (configuration not stated)
NO
c1ccc(COc2ccc(Nc3ncnc4c3cnn4-c3ccccc3)cc2)cc1
NO
COc1cccc(/C=N/Nc2nc3ccccc3s2)c1OC
NO
Oc1ccc(/C=N/Nc2nc3ccccc3s2)c(O)c1
NO
COc1ccc(N2CCN(CC(=O)N3CCN(c4nnc(-c5ccccc5)c(-c5ccccc5)n4)CC3)CC2)cc1
NO
Cc1cc(Br)c(C)cc1Br
NO
CC1C(C)N(C(=O)CCl)c2ccccc2N1C(=O)CCl (configuration not stated)
YES
COc1ccc2[nH]c(=O)c(CNc3ccc(Nc4nccc(-c5ccc(Cl)cc5)n4)cc3)cc2c1
NO
COC(=O)c1cc2c(/C=C3/NC(=S)NC3=O)coc2n1C
NO
Cc1cc2c(cc1C)[n+](Cc1ccc3ccccc3n1)cn2Cc1ccc2ccccc2n1
NO
Cc1nn(-c2nc3ccccc3s2)c(C)c1Oc1ccccc1O
NO
C(=C1c2ccccc2-c2ccccc21)c1ccncc1
NO
N=C1c2nc3n(c2C(=O)c2nc4n(c21)CCCCC4)CCCCC3
NO
O=C(O)c1ccc2cccnc2c1O
NO
COc1ccc(-c2cc(-c3cccnc3)nc(S(=O)(=O)CC(=O)Nc3ccc(C)cc3)c2C#N)cc1OC
NO

###

# System: SNB-75 CNS
# test details: NCI-60 one-dose screen, 48 h
# condition context: 10 µM unless noted
Compounds without any hit were thinned out: in the full panel of roughly 83,000, 20% have a hit. Calls of active or inactive are those of the source. How the source made its calls: active means growth percent below 10; inactive means the rest.
Outcome codes: active, inactive

O=C(COc1ccc(/C=C2\Oc3ccc4ccccc4c3C2=O)cc1)c1ccc([N+](=O)[O-])cc1
inactive
Clc1ccc2nc(CI)c(CI)nc2c1
inactive
Cc1n(Cc2ccc3ccccc3c2)cc[n+]1Cc1ccc2ccccc2c1
active
CN[C@@H]1C(OC2[C@H](O[C@H]3[C@H](O)[C@@H](O)[C@H](N=C(N)N)[C@@H](O)[C@@H]3N=C(N)N)OC(C)[C@]2(O)CO)OC(CO)C(O)C1O (stereo partly specified)
inactive
O=C1/C(=C/c2ccccc2O)C(=S)SN1Cc1ccco1
inactive
Cc1ccc(-c2cc(-c3ccccc3)n(-c3ccccc3)n2)cc1
inactive
COc1cc(/C=C/c2cc(/C=C/c3ccc(O)c(OC)c3)n(C(=O)Cc3ccccc3)n2)ccc1O
active
Cc1cc(C)nc(NS(=O)(=O)c2ccc(Nc3nc4nc(SCc5ccccc5)nc(-c5ccc(O)cc5)c4c(=O)[nH]3)cc2)n1
inactive
O=C(Nc1cccc(-n2cc(-c3ccncc3)c(-c3cc(O)cc(Cl)c3)n2)c1)Nc1ccc(Cl)c(Cl)c1
active
COc1cccc(/C=C2\Cc3ccccc3C2=O)c1
inactive
COc1cccc(N2CCN(c3cccc(C)n3)CC2)c1
inactive
O=C1C=CC(=O)N1c1ccccc1N1C(=O)C=CC1=O
inactive
COC(=O)C1(NC(=O)CNC(=O)OCc2ccccc2)CCCC1
inactive
CC(C)OP(=O)(OC(C)C)c1ncc(-c2ccc(C(F)(F)F)cc2)c(NC2CCCCCC2)n1
active
OC(c1ccccc1)C(NCc1ccccc1)c1ccccc1 (stereo unspecified)
inactive
COC(=O)[C@H](Cc1cn(C)cn1)NC(=O)[C@H](C)NC(=O)Nc1cc(C(F)(F)F)cc(C(F)(F)F)c1
active
O=C1NC(=S)S/C1=C\c1cc(Br)ccc1O
inactive
COc1cc(C2CC(C3C(=O)N(C)C(=O)N(C)C3=O)=NN2c2cc(Cl)cc(Cl)c2)cc(OC)c1OC (stereo unspecified)
inactive
Nc1ncnc2c1CN(Cc1ccccc1)CC2
inactive
c1ccc(N2c3nc4ccccc4cc3Sc3cc4ccccc4nc32)nc1
inactive
Cc1cc(Cl)ccc1Nc1nc(C(F)(F)F)ccc1C(=O)N/N=C/c1ccc(Cl)cc1
active
O=C1c2cccc3c([N+](=O)[O-])ccc(c23)C(=O)N1CCCCl
active
COc1ccc(C2=NN(C(C)=O)C(c3cccc(Nc4ccnc5cc(Cl)ccc45)c3)C2)cc1 (stereo unspecified)
inactive
O=Cc1ccccc1C(=O)O
inactive
COc1cc(/C=N/NC(=O)c2ccc(C(F)(F)F)nc2Nc2ccc(Cl)cc2C)ccc1O
inactive
CC(NNC(=S)N1CCCCCC1)c1ccc2ccccc2n1 (stereo unspecified)
inactive
O=C1Nc2ccc(Cl)cc2[C@@](C#CC2CC2)(C(F)(F)F)O1
inactive
COc1cnc2c(c1)C(=O)c1c-2n(CCCN2CCCC2)c(=O)c2cc(F)ccc12
active
CC1CC=CCC1C1OCC(C)(C)CO1 (stereo unspecified)
inactive
COc1cc(-c2nc3sc4c(c3c(=O)[nH]2)CCCCCC4)cc(OC)c1OC
active
O=C(Nc1nc2c(C(F)(F)F)cccc2s1)c1cc(Cl)ccc1O
inactive
CCCCOP(=O)(OCCCC)C(C(=O)OCC)C(CC(=O)OCC)C(=O)OCC (stereo unspecified)
inactive
Nc1nc2c(c(=O)[nH]1)C1(C(=O)Nc3ccccc31)c1c(nc(N)[nH]c1=O)N2
inactive
Nc1ccc2c(c1)Cc1cc(Cl)c(Cl)cc1-2
inactive
O=C(NC1CCCCC1)c1ccc(Nc2ncnc3c2cnn3-c2ccccc2)cc1
active
C[C@H](C(=O)N[C@@H](Cc1ccc(-c2ccccc2)cc1)C(=O)NC1CC(C)(C)N(C)C(C)(C)C1)c1ccc(-c2ccccc2)c(F)c1
active
CNCCCn1c2c(c3ccc(F)cc3c1=O)C(=O)c1cc(OC)cnc1-2
active
Cc1ccc2nc3c(n2c1)C(=O)C(=O)c1ccccc1-3
active
O=C(c1ccc(Cl)cc1)c1ccc(Cl)cc1
inactive
CC(C)=CCNc1ncnc2c1ncn2C1OC(COP(=O)(O)O)C(O)C1O (stereo unspecified)
inactive
COc1cc(/C=C/C(=O)CC(=O)/C=C/c2ccc(OC(=O)C3C4CC5CC(C4)CC3C5)c(OC)c2)ccc1OC(=O)C1C2CC3CC(C2)CC1C3 (stereo unspecified)
inactive

Values were extracted from PubChem BioAssay (NCI).
